Each recorded value in this set is attributed to the array DNA melting data of Ke et al. (doi:10.1101/2024.01.08.574731).

- protocol_summary: folding enthalpy; higher = less favourable; fluorescence melt of hairpins on a sequencing array, two-state fit
- condition_context: sodium 0.088 M
Readings of folding enthalpy for the listed sequences

residues: GTCCGCCGAAAGGCCGAC (((.(((....))).)))
folding enthalpy [kcal/mol]: -20.5

residues: GCGAACGGAAACGCTCGC ((((.((....)).))))
folding enthalpy [kcal/mol]: -41.5

residues: GATTGCGAAAGCACATC ((((((....))).)))
folding enthalpy [kcal/mol]: -19.3

residues: GGCCTCGGAAACGAGGTC (.(((((....))))).)
folding enthalpy [kcal/mol]: -28.2

residues: GATCTCAGCTGAGATC ((((((....))))))
folding enthalpy [kcal/mol]: -46.8

residues: GGTGAGCGAAAGCTGACC (((.(((....))).)))
folding enthalpy [kcal/mol]: -37.8

residues: CACAAGAAATTGTG (((((....)))))
folding enthalpy [kcal/mol]: -21.7

residues: GCAAGGCGAAAGCTCTGC (((..((....))..)))
folding enthalpy [kcal/mol]: -21.5

residues: GCTCCGCGAAAGCTGAGC ((((.((....)).))))
folding enthalpy [kcal/mol]: -32.3

residues: GCTTTGCGAAAGCGTAGC (((..((....))..)))
folding enthalpy [kcal/mol]: -19.6

residues: GTCTTTCGAAAGAAGGAC (((.(((....))).)))
folding enthalpy [kcal/mol]: -31.5

residues: GAGTGCCGAAAGGCTCTC (((.(((....))).)))
folding enthalpy [kcal/mol]: -25.6

residues: GATCCGACACCGGATC ((((((....))))))
folding enthalpy [kcal/mol]: -37.4

residues: GTGTTGCGAAAGCATCAC (((.(((....))).)))
folding enthalpy [kcal/mol]: -30.7

residues: GCGACCAATCGC ((((....))))
folding enthalpy [kcal/mol]: -23.6

residues: GGTAACGAAAGTTGTACC ((((((....)))..)))
folding enthalpy [kcal/mol]: -17.5

residues: GCTGACTCGAAAGAGAGC (((..(((....))))))
folding enthalpy [kcal/mol]: -14.6

----------
- protocol_summary: folding enthalpy; higher = less favourable; fluorescence melt of hairpins on a sequencing array, two-state fit
- condition_context: sodium 0.088 M
Class boundaries, taken from values of folding enthalpy, are as follows: class A: < -30 kcal/mol; class B: ≥ -30 kcal/mol and < -20 kcal/mol; class C: ≥ -20 kcal/mol

residues: GATGGCCGAAAGGCATC (((.(((....))))))
category_label: class C
--
residues: GTAATCACGAAAGTGTAC (((..(((....))))))
category_label: class C
--
residues: GATCAACCATTTGATC ((((((....))))))
category_label: class A
--
residues: GGCCGAGGAAACTCGGTC (.(((((....))))).)
category_label: class A
--
residues: GGTGTCACGAAAGTGACC (((..(((....))))))
category_label: class C
--
residues: GTTGTCGAAAGACGGAAC ((((((....)))..)))
category_label: class C
--
residues: GGCCGCGAAAGCGTAGCC ((((((....)))..)))
category_label: class B
--
residues: GTGTTAGGAAACTAATAC ((.((((....)))).))
category_label: class B
--
residues: GTCTACCGAAAGGTTGAC (((.(((....))).)))
category_label: class A
--
residues: CGATTACGGAAACGTTCG (((..(((....))))))
category_label: class B
--
residues: GATCTGTACGCAGATC ((((((....))))))
category_label: class A
--
residues: GATGGTGAAAACCATC ((((((....))))))
category_label: class A
--
residues: GATTCAGAAATGAATC ((((((....))))))
category_label: class B
--
residues: GCGACCAGTCGC ((((....))))
category_label: class A
--
residues: GGGTCAGGAAACTGGCCC (((.(((....))).)))
category_label: class A
--
residues: GAGCACCCGAAAGGGCTC (((..(((....))))))
category_label: class B

----------
- protocol_summary: melting temperature; fluorescence melt of hairpins on a sequencing array, two-state fit, raised by 9.35 °C to match UV melts
- condition_context: sodium 0.088 M
Label Not met if Tm falls below 50 °C; label Met in every other case.

residues: GATCGAATGATCGATC ((((((....))))))
category_label: Met

residues: ACAGGGAAACCTGT (((((....)))))
category_label: Not met

residues: GCTAATGGAAACATTAGC (((((((....)))))))
category_label: Met

residues: GGGAGCGAAAGCTTTCCC ((((((....)))..)))
category_label: Not met

residues: GATCACGCGTGTGATC ((((((....))))))
category_label: Met

residues: GATCGTCAGCACGATC ((((((....))))))
category_label: Met

residues: GATCCTATATAGGATC ((((((....))))))
category_label: Met

residues: GATGCAGGAAACTGCGTC ((.((((....)))).))
category_label: Met

----------
Readings of folding enthalpy for the listed sequences
- protocol_summary: folding enthalpy; higher = less favourable; fluorescence melt of hairpins on a sequencing array, two-state fit
- condition_context: sodium 0.088 M
metric: folding enthalpy (kcal/mol)

residues: GGTACCGGAAACGGCACC (((.(((....))).)))
metric: folding enthalpy
result: -29.9

residues: GACGCAACGAAAGTTGTC (((..(((....))))))
metric: folding enthalpy
result: -10

residues: GTCCCCGAAAGGGTGAC ((((((....))).)))
metric: folding enthalpy
result: -22.6

residues: GGAAAGGGAAACCCTTCC ((((.((....)).))))
metric: folding enthalpy
result: -23.1

residues: GATCTTCATCAAGATC ((((((....))))))
metric: folding enthalpy
result: -29.9

----------
- protocol_summary: melting temperature; fluorescence melt of hairpins on a sequencing array, two-state fit, raised by 9.35 °C to match UV melts
- condition_context: sodium 0.088 M

residues: GGTTACGGAAACGTGATC (.(.(((....))).).)
Tm (°C): 30.4

residues: GATCCAGCTTGGATC ((((((...))))))
Tm (°C): 52

residues: GGGAGCGGAAACGCTTCC ((.((((....)))).))
Tm (°C): 61.4

residues: GCCCTCGAAAGAGTTGGC ((((((....)))..)))
Tm (°C): 44

residues: GCGTATATACGC ((((....))))
Tm (°C): 55

residues: GCCTAAGGAAACTTGGGC (((.(((....))).)))
Tm (°C): 48.9

residues: GAATCACGAAAGTGGTTC (((.(((....))).)))
Tm (°C): 53.2

residues: GGGAGACGAAAGTCCCC (((.(((....))))))
Tm (°C): 56.4

residues: GTGTCCGCGAAAGCGCAC (((..(((....))))))
Tm (°C): 40.5

residues: GTTGCCGGAAACGACAAC ((((.((....)).))))
Tm (°C): 48.5

residues: GATCTCTCAGGAGATC ((((((....))))))
Tm (°C): 54.2

residues: AGAAACCGAAAGGCTTCT ((((.((....)).))))
Tm (°C): 40.9

residues: GCCAGTGGAAACACTGAC (.(((((....))))).)
Tm (°C): 46.1

residues: GATCCAGTCATGGATC ((((((....))))))
Tm (°C): 58.3

residues: GATCATCCGATGATC ((((((...))))))
Tm (°C): 46.8

residues: GATCCATCTATGGATC ((((((....))))))
Tm (°C): 55.8

residues: GCGTCACGAAAGTGTCGC (((.(((....))).)))
Tm (°C): 63.4

residues: GTTATACGAAAGTAAAAC (((.(((....))).)))
Tm (°C): 32.2

residues: GATCTGTGCCCAGATC ((((((....))))))
Tm (°C): 49

residues: CGCAACCGGAAACGGGCG (((..(((....))))))
Tm (°C): 50.1

residues: GATCCCAATGGGATC ((((((...))))))
Tm (°C): 60.6

----------
Readings of Tm for the listed sequences
- protocol_summary: melting temperature; fluorescence melt of hairpins on a sequencing array, two-state fit, raised by 9.35 °C to match UV melts
- condition_context: sodium 0.088 M

residues: GAGCACGAAAGTGCCTC ((((((....))).)))
Tm [°C]: 51.2

residues: GATCGAGCCGTCGATC ((((((....))))))
Tm [°C]: 54.4

residues: GACGACGGAAACACCGTC ((((..(....)..))))
Tm [°C]: 38.2

residues: GATCGAGCATTCGATC ((((((....))))))
Tm [°C]: 58.2

residues: GGGTCAGGAAACTGGCTC (.(.(((....))).).)
Tm [°C]: 39.8

residues: GAGGACGAAAGTCGCTC ((((((....))).)))
Tm [°C]: 46
